Taken from ChEMBL document CHEMBL1909046.

# assayed.target: Cytochrome P450 3A4 (Homo sapiens); also: in other assays of this panel Not Active means under 50% inhibition at 10 µM
# Sequence (P08684 whole entry): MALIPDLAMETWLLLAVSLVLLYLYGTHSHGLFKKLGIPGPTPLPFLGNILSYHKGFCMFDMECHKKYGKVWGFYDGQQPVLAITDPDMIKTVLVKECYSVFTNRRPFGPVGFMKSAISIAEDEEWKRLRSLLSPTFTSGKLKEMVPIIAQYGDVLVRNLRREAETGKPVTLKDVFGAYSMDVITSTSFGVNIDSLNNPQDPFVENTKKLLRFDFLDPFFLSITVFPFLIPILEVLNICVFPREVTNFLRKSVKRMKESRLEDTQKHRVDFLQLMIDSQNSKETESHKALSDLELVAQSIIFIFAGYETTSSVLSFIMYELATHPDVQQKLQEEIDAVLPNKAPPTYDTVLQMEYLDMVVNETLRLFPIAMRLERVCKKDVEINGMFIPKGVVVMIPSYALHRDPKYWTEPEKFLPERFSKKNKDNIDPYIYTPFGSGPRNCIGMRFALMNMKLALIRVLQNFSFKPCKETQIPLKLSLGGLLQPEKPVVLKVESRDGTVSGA
# stated.conditions: bti-tn-5b1-4
quantity.measured: IC50

- Nc1ccc(Cc2ccc(N)cc2)cc1: Not Active
- CC(Cl)(Cl)Cl [TRICHLOROETHANE]: Not Active
- C[C@]12CC[C@@H](O)C[C@@H]1CC[C@@H]1[C@@H]2CC[C@]2(C)C(=O)CC[C@@H]12 [ANDROSTERONE]: Not Active
- O=c1[nH]cnc2c1ncn2[C@H]1CC[C@@H](CO)O1 [DIDANOSINE]: Not Active
- OC[C@@H](O)[C@@H](O)[C@H](O)[C@H](O)CO [MANNITOL]: Not Active
- CC(CN1c2ccccc2Sc2ccccc21)N(C)C (stereo unspecified) [PROMETHAZINE]: Not Active
- CC12CCC(CC1)C(C)(C)O2 [EUCALYPTOL]: Not Active
- CCN(CC)CCNC(=O)c1cc(Cl)c(N)cc1OC [METOCLOPRAMIDE]: Not Active
- Oc1ncnc2[nH]ncc12 [ALLOPURINOL]: Not Active
- COc1cc(NC(C)CCCN)c2ncccc2c1 (stereo unspecified) [PRIMAQUINE]: Not Active
- CC12CCC(CC1=O)C2(C)C (stereo unspecified) [CAMPHOR]: Not Active
